- Tested on: BT-549 breast
- protocol: NCI tumour cell line growth inhibition, 48 h; in the data active = GI50 below about 0.43 µM; inactive = the rest
Choose one outcome from this list and give only that: active, inactive

# molecule, class
measured = [
    ("COc1cc(N2C(=O)[C@H](c3ccccc3)C2c2ccc(SC)cc2)cc(OC)c1OC (stereo partly specified)", "active"),
]

Exercise: Give the logged outcome of this assay for the following molecule: CCOC(=O)C1=C(C)NC(=O)NC1CN1C(=O)c2ccccc2C1=O (stereo unspecified)
Key: inactive

Exercise: Give the logged outcome of this assay for the following molecule: O=C(COc1cccc(/C=C2\CSc3ccc(Cl)cc3C2=O)c1)c1ccc(Cl)cc1
Key: inactive

Exercise: Give the logged outcome of this assay for the following molecule: N#CC(C#N)=C1CCOc2ccc(F)cc21
Key: inactive

Exercise: Give the logged outcome of this assay for the following molecule: N#Cc1c(NC(=O)c2ccc(F)cc2)sc2c1CCCC2
Key: inactive

Exercise: Give the logged outcome of this assay for the following molecule: COc1ccc(CCN(CC(=O)N(CC(N)=O)C2CCC[C@@H]2OCc2ccccc2)C(=O)CN(C(=O)CN(CCc2ccc(Cl)cc2)C(=O)CN(C(=O)CN(C)Cc2ccccc2F)[C@H](C)C2CCCCC2)[C@H](C)C2CCCCC2)cc1OC (stereo partly specified)
Key: inactive
